# Tested on: P388 murine leukemia
# ASSAY PROCEDURE: In vivo anti-tumor activity, i.p. implanted leukemia;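 further: ILS is treated over control median survival time times 100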
# Parameters: species or system BDF1 hybrid male mice
# PARTICULARS: 26 mg/kg/day i.p., days 1, 5, 9; P388
ATTRIBUTE MEASURED: ILS (%)
Only the number, expressed in %, is required.

Task item: Give ILS (P388 murine leukemia) of the following compound: O=C(Nc1ccccc1)N1CCCC1c1cc2c(cc1O)OCO2 (centres unmarked)
Reply: 165

Task item: Give ILS (P388 murine leukemia) of the following compound: CN(C)CCNC(=O)N1CCCC1c1ccc(Nc2c([N+](=O)[O-])c(Cl)cc3c2no[n+]3[O-])cc1O.O=C(O)C(F)(F)F (centres unmarked)
Reply: 34

Task item: Give ILS (P388 murine leukemia) of the following compound: CN(C)CCNC(=O)N1CCCC1c1cc2c(cc1O)OCO2.O=C(O)C(F)(F)F (centres unmarked)
Reply: 95

Task item: Give ILS (P388 murine leukemia) of the following compound: CN(C)CCNC(=O)N1CCCC1c1c(O)c2ccccc2oc1=O.O=C(O)C(F)(F)F (centres unmarked)
Reply: 107

Task item: Give ILS (P388 murine leukemia) of the following compound: Cc1cc(O)c(C2CCCN2C(=O)NCCN(C)C)c(=O)o1.O=C(O)C(F)(F)F (centres unmarked)
Reply: 0

====

ATTRIBUTE MEASURED: melting point

Task item: What value of melting point has been recorded for this entry: O=C(Nc1ccc(Br)cc1)N1CCCC1c1ccc(Nc2c([N+](=O)[O-])c(Cl)cc3c2no[n+]3[O-])cc1O (centres unmarked) [6d]
Reply: 166 to 170 °C (dec.)

Task item: What value of melting point has been recorded for this entry: CCCCCCNC(=O)N1CCCC1c1c(O)c2ccccc2oc1=O (centres unmarked) [8f]
Reply: 124 to 125 °C

Task item: What value of melting point has been recorded for this entry: NC(=O)N1CCCC1c1cc2c(cc1O)OCO2 (centres unmarked) [5a]
Reply: 206 to 207 °C

Task item: What value of melting point has been recorded for this entry: O=C(NC1CCCCC1)N1CCCC1c1ccc(Nc2c([N+](=O)[O-])c(Cl)cc3c2no[n+]3[O-])cc1O (centres unmarked) [6g]
Reply: 170 to 175 °C (dec.)

Task item: What value of melting point has been recorded for this entry: O=C(Nc1ccc(F)cc1)N1CCCC1c1ccc(Nc2c([N+](=O)[O-])c(Cl)cc3c2no[n+]3[O-])cc1O (centres unmarked) [6e]
Reply: 175 to 177 °C (dec.)

Task item: What value of melting point has been recorded for this entry: CCCCCCNC(=O)N1CCCC1c1ccc(Nc2c([N+](=O)[O-])c(Cl)cc3c2no[n+]3[O-])cc1O (centres unmarked) [6f]
Reply: 121 to 122 °C (dec.)

Task item: What value of melting point has been recorded for this entry: O=C(NC1CCCCC1)N1CCCC1c1cc2c(cc1O)OCO2 (centres unmarked) [5g]
Reply: 159 to 160 °C

Task item: What value of melting point has been recorded for this entry: Cc1cc(O)c(C2CCCN2C(=O)Nc2ccccc2)c(=O)o1 (centres unmarked) [7b]
Reply: 190 to 191 °C

Task item: What value of melting point has been recorded for this entry: COc1ccc(NC(=O)N2CCCC2c2c(O)c3ccccc3oc2=O)cc1 (centres unmarked) [8c]
Reply: 152 to 153 °C

Task item: What value of melting point has been recorded for this entry: Cc1cc(O)c(C2CCCN2C(=O)NC2CCCCC2)c(=O)o1 (centres unmarked) [7g]
Reply: 184 to 185 °C

Task item: What value of melting point has been recorded for this entry: Cc1cc(O)c(C2CCCN2C(=O)Nc2ccc(F)cc2)c(=O)o1 (centres unmarked) [7e]
Reply: 177 to 178 °C

Task item: What value of melting point has been recorded for this entry: O=C(Nc1ccc(F)cc1)N1CCCC1c1cc2c(cc1O)OCO2 (centres unmarked) [5e]
Reply: 184 to 185 °C

Task item: What value of melting point has been recorded for this entry: O=C(NC1CCCCC1)N1CCCC1c1c(O)c2ccccc2oc1=O (centres unmarked) [8g]
Reply: 166 to 167 °C

Task item: What value of melting point has been recorded for this entry: CCCCCCNC(=O)N1CCCC1c1c(O)cc(C)oc1=O (centres unmarked) [7f]
Reply: 137 to 138 °C

Task item: What value of melting point has been recorded for this entry: COc1ccc(NC(=O)N2CCCC2c2c(O)cc(C)oc2=O)cc1 (centres unmarked) [7c]
Reply: 168 to 169 °C

Task item: What value of melting point has been recorded for this entry: CCCCCCNC(=O)N1CCCC1c1cc2c(cc1O)OCO2 (centres unmarked) [5f]
Reply: 91 to 93 °C

Task item: What value of melting point has been recorded for this entry: O=C(Nc1ccccc1)N1CCCC1c1c(O)c2ccccc2oc1=O (centres unmarked) [8b]
Reply: 179 to 180 °C

Task item: What value of melting point has been recorded for this entry: O=C(Nc1ccc(Br)cc1)N1CCCC1c1c(O)c2ccccc2oc1=O (centres unmarked) [8d]
Reply: 179 °C

Task item: What value of melting point has been recorded for this entry: O=C(Nc1ccccc1)N1CCCC1c1ccc(Nc2c([N+](=O)[O-])c(Cl)cc3c2no[n+]3[O-])cc1O (centres unmarked) [6b]
Reply: 165 to 170 °C (dec.)

Task item: What value of melting point has been recorded for this entry: COc1ccc(NC(=O)N2CCCC2c2cc3c(cc2O)OCO3)cc1 (centres unmarked) [5c]
Reply: 112 to 114 °C

====

# Tested on: Escherichia coli MG1655 (pRecA-lux)
# ASSAY PROCEDURE: Genotoxicity, bacterial lux-biosensor
# Format: cell-based
# PARTICULARS: without metabolic activation (-S9); 10^−9 M
Kindly supply the reported Genotoxicity (induction factor, I) values for the records listed here.
Enter the number alone.

Task item: What value of Genotoxicity (induction factor, I) has been recorded for this entry: COc1ccc(NC(=O)N2CCCC2c2ccc(Nc3c([N+](=O)[O-])c(Cl)cc4c3no[n+]4[O-])cc2O)cc1 (centres unmarked)
Reply: 2.67

Task item: What value of Genotoxicity (induction factor, I) has been recorded for this entry: O=[N+]([O-])c1c(Cl)cc2c(no[n+]2[O-])c1Nc1cccc(O)c1
Reply: 1.21

Task item: What value of Genotoxicity (induction factor, I) has been recorded for this entry: O=C(Nc1ccc(Br)cc1)N1CCCC1c1ccc(Nc2c([N+](=O)[O-])c(Cl)cc3c2no[n+]3[O-])cc1O (centres unmarked)
Reply: 0.64

Task item: What value of Genotoxicity (induction factor, I) has been recorded for this entry: O=C(Nc1ccc(F)cc1)N1CCCC1c1ccc(Nc2c([N+](=O)[O-])c(Cl)cc3c2no[n+]3[O-])cc1O (centres unmarked)
Reply: 2.56

Task item: What value of Genotoxicity (induction factor, I) has been recorded for this entry: O=C(Nc1ccccc1)N1CCCC1c1ccc(Nc2c([N+](=O)[O-])c(Cl)cc3c2no[n+]3[O-])cc1O (centres unmarked)
Reply: 2.34

====

# Test system: Vibrio aquamarinus DSM 26054
# ASSAY PROCEDURE: Biofilm formation, crystal violet assay
# Type: cell-based
# PARTICULARS: V. aquamarinus DSM 26054; 1 × 10^−8 M; control = 100%
Marks after values point to notes of the source that are not given here.
Kindly supply the reported Biofilm Formation values for the records listed here.

Task item: What value of Biofilm Formation has been recorded for this entry: COc1ccc(NC(=O)N2CCCC2c2ccc(Nc3c([N+](=O)[O-])c(Cl)cc4c3no[n+]4[O-])cc2O)cc1 (centres unmarked) [6c]
Reply: 14.67 * %

Task item: What value of Biofilm Formation has been recorded for this entry: CC[C@H]1OC(=O)[C@H](C)[C@@H](O[C@H]2C[C@@](C)(OC)[C@@H](O)[C@H](C)O2)[C@H](C)[C@@H](O[C@@H]2O[C@H](C)C[C@H](N(C)C)[C@H]2O)[C@](C)(O)C[C@@H](C)CN(C)[C@H](C)[C@@H](O)[C@]1(C)O [Azithromycin, reference compound]
Reply: 102.43%

Task item: What value of Biofilm Formation has been recorded for this entry: O=C(Nc1ccccc1)N1CCCC1c1ccc(Nc2c([N+](=O)[O-])c(Cl)cc3c2no[n+]3[O-])cc1O (centres unmarked) [6b]
Reply: 15.42 * %

Task item: What value of Biofilm Formation has been recorded for this entry: O=[N+]([O-])c1c(Cl)cc2c(no[n+]2[O-])c1Nc1cccc(O)c1 [compound 4]
Reply: 9.31 * %

Task item: What value of Biofilm Formation has been recorded for this entry: O=C(Nc1ccc(F)cc1)N1CCCC1c1ccc(Nc2c([N+](=O)[O-])c(Cl)cc3c2no[n+]3[O-])cc1O (centres unmarked) [6e]
Reply: 17.96 * %

====

# Test system: Vibrio aquamarinus DSM 26054
# ASSAY PROCEDURE: Biofilm formation, crystal violet assay
# Type: cell-based
# PARTICULARS: V. aquamarinus DSM 26054; 1 × 10^−9 M; control = 100%
Kindly supply the reported Biofilm Formation values for the records listed here.
Only the number, expressed in %, is required.

Task item: What value of Biofilm Formation has been recorded for this entry: O=[N+]([O-])c1c(Cl)cc2c(no[n+]2[O-])c1Nc1cccc(O)c1 [compound 4]
Reply: 66.58

Task item: What value of Biofilm Formation has been recorded for this entry: O=C(Nc1ccc(F)cc1)N1CCCC1c1ccc(Nc2c([N+](=O)[O-])c(Cl)cc3c2no[n+]3[O-])cc1O (centres unmarked) [6e]
Reply: 67.29

Task item: What value of Biofilm Formation has been recorded for this entry: CC[C@H]1OC(=O)[C@H](C)[C@@H](O[C@H]2C[C@@](C)(OC)[C@@H](O)[C@H](C)O2)[C@H](C)[C@@H](O[C@@H]2O[C@H](C)C[C@H](N(C)C)[C@H]2O)[C@](C)(O)C[C@@H](C)CN(C)[C@H](C)[C@@H](O)[C@]1(C)O [Azithromycin, reference compound]
Reply: 103.42
